Target: human glucagon receptor (human) (UniProt P47871)
Sequence (P47871 26-477): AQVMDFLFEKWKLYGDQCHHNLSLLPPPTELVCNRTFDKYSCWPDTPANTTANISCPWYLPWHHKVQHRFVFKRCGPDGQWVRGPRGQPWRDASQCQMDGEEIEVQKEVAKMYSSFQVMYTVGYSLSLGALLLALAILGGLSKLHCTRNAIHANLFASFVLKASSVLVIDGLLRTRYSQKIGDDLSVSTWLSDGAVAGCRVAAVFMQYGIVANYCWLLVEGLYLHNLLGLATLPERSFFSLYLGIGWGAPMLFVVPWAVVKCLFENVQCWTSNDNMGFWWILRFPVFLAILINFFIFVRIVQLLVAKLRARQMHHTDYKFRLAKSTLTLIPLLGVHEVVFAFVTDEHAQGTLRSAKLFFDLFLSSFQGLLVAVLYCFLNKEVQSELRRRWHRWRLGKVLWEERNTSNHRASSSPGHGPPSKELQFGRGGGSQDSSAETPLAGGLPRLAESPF
Assay: cell-based or functional assay
Measured metric: Relative cAMP EC50 (nM)
Write the answer as a number in nM, unit excluded.

For orientation, consider the following solved cases.
Binder	Quantitative result
YXQGTFTSDXSKXLDKKAQXAFIEYLIEAGESSGAPPPSGS (synthetic construct; SITE 2: note = 2-Aminoisobutyric Acid; SITE 10: note = 3-(4-Pyridyl)-L-alanine; SITE 13: note = alpha-methyl-leucine; SITE 17: note = Lysine is chemically modified through conjugation of the epsilon-amino group of the Lysine side chain with (2-[2-(2-Amino-ethoxy)-ethoxy]-acetyl)) [Example 283]	9.73
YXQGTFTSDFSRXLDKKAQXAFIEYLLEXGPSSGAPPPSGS (synthetic construct; SITE 2: note = 2-Aminoisobutyric Acid; SITE 13: note = alpha-methyl-leucine; SITE 17: note = Lysine is chemically modified through conjugation of the epsilon-amino group of the Lysine side chain with (2-[2-(2-Amino-ethoxy)-ethoxy]-acetyl)2-(gamma-Glu)-CO-(CH2 )16-CO2H; SITE 20:) [Example 80]	7.44

Would you mind telling me what Relative cAMP EC50 value was observed for YXQGTFTSDFSKXLDKKAQXAFIEYLIEXGESSGAPPPSGS (Aib, αMeL; K acylated AEEA-γGlu-C18 diacid; C-amide; synthetic construct; SITE 2: note = 2-Aminoisobutyric Acid; SITE 13: note = alpha-methyl-leucine; SITE 17: note = Lysine is chemically modified through conjugation of the epsilon-amino group of the Lysine side chain with (2-[2-(2-Amino-ethoxy)-ethoxy]-acetyl)-(gamma-Glu)-CO-(CH2) 16-CO2H; SITE 20: n) [Example 216] ?
2.7

Would you mind telling me what Relative cAMP EC50 value was observed for YXQGTXTSDXXIXLDXKAQXEFIEXLIEGGPPSXEPPPSGGGE (non-natural residues; acylated Lys; C-terminal amide; synthetic construct; SITE 2: note = 2-Aminoisobutyric Acid; SITE 6: note = alpha-methyl-2-fluoro-L-phenylalanine; SITE 10: note = 3-(4-Pyridyl)-L-alanine; SITE 11: note = alpha-methyl-L-serine; SITE 13: note = alpha-methyl-leucine; SITE 16: note = L-ornithine; SITE 17: note = Lysine is chemically mo) [Example 1201] ?
1.76
